- system under test: KRAS Q61H (Homo sapiens (Human), UniProt P01116+P62937, Q61H)
- Sequence (P01116 other isoform, or with tags, fused parts or gaps Q61H): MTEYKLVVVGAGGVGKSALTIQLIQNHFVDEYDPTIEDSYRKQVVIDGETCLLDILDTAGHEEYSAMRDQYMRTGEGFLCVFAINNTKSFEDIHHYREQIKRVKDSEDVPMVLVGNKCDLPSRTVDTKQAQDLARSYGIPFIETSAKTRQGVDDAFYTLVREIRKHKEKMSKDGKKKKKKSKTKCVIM
- Sequence (P62937 whole entry): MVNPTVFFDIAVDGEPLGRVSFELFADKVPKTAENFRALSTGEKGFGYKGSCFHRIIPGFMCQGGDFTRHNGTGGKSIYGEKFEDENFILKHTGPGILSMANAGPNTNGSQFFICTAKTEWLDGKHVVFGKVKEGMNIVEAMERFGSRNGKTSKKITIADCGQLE
- procedure text: Ras-Raf disruption/FRET/MOA assay, KRAS Q61H
- Type: biochemical
measured attribute: IC50

CCn1c(-c2cccnc2[C@H](C)OC)c2c3cc(ccc31)-c1cc(O)cc(c1)C[C@H](NC(=O)[C@H](C(C)C)N(C)C(=O)[C@@H]1CO[C@H](C)CN1C(=O)[C@@H]1CN1)C(=O)N1CCC[C@H](N1)C(=O)OCC(C)(C)C2 < 10 nM

The record that follows has no IC50 shown yet.
IC50 recorded for this molecule, `CCn1c(-c2cccnc2[C@H](C)OC)c2c3cc(ccc31)-c1cc(O)cc(c1)C[C@H](NC(=O)[C@H](C(C)C)N(C)C(=O)[C@@]1(C)CCCN1C(=O)[C@H]1CN1)C(=O)N1CCC[C@H](N1)C(=O)OCC(C)(C)C2` , is 10 to 100 nM
